Ref: ChEMBL document CHEMBL5500403

- method.summary: Total clearance in Sprague-Dawley rat at 1 mg/kg,iv administration measured upto 9 days by LC-MS/MS analysis
- Format: ADME, organism-based
- conditions.used: in vivo, time < 9 day
experimental.readout: clearance (mL/min/kg)
Just the number in mL/min/kg, nothing appended.

Ask | For H-GWEALKYLWNLLQYW-OH , what is its reported clearance?
Reply | 0.158

###

- method.summary: Half life in Sprague-Dawley rat plasma at 50 mg/kg,po administrated for 15 hrs by LC-MS/MS analysis
- Assay type: ADME, organism-based
Bridge positions count the residues as written; N and C are the ends. Square brackets hold non-standard residues; d marks the D form. Peptide text beside a SMILES is read from it. S5 = C=CCCC[C@](C)(N)C(=O)O
experimental.readout: half-life (h)
Just the number in h, nothing appended.

Ask | For CC(=O)NCC(=O)N[C@@]1(C)CCC/C=C\CCC[C@@](C)(C(=O)N[C@@H](Cc2ccc(O)cc2)C(=O)N[C@@H](CC(C)C)C(=O)N[C@@]2(C)CCC/C=C\CCC[C@@](C)(C(=O)N[C@@H](Cc3ccc(O)cc3)C(=O)N[C@@H](Cc3c[nH]c4ccccc34)C(N)=O)NC(=O)[C@H](CC(C)C)NC(=O)[C@H](CC(C)C)NC(=O)[C@H](CC(N)=O)NC2=O)NC(=O)[C@H](CC(C)C)NC(=O)[C@H](C)NC(=O)[C@H](CCC(=O)O)NC1=O (Ac-G[S5]EAL[S5]YL[S5]NLL[S5]YW-NH2; staple (Z) 2-6, 9-13) , what is its reported half-life?
Reply | 41.2

###

- method.summary: MRT in Sprague-Dawley rat at 1 mg/kg,iv administration measured upto 9 days by LC-MS/MS analysis
- Assay type: ADME, organism-based
- conditions.used: in vivo, time < 9 day
experimental.readout: MRT
Kindly write the number and append the unit.

Ask | For H-GWEALKYLWNLLQYW-OH , what is its reported MRT?
Reply | 5.4 h

###

- method.summary: Plasma protein binding in human by LC-MS/MS analysis
- Type: ADME, cell-free
- conditions.used: read-out: PPB (converted)
Bridge positions count the residues as written; N and C are the ends. Square brackets hold non-standard residues; d marks the D form. Peptide text beside a SMILES is read from it. S5 = C=CCCC[C@](C)(N)C(=O)O
experimental.readout: fraction unbound
Please give the numeric answer without any surrounding text.

Ask | For CC(=O)NCC(=O)N[C@@]1(C)CCC/C=C\CCC[C@@](C)(C(=O)N[C@@H](Cc2ccc(O)cc2)C(=O)N[C@@H](CC(C)C)C(=O)N[C@@]2(C)CCC/C=C\CCC[C@@](C)(C(=O)N[C@@H](Cc3ccc(O)cc3)C(=O)N[C@@H](Cc3c[nH]c4ccccc34)C(N)=O)NC(=O)[C@H](CC(C)C)NC(=O)[C@H](CC(C)C)NC(=O)[C@H](CC(N)=O)NC2=O)NC(=O)[C@H](CC(C)C)NC(=O)[C@H](C)NC(=O)[C@H](CCC(=O)O)NC1=O (Ac-G[S5]EAL[S5]YL[S5]NLL[S5]YW-NH2; staple (Z) 2-6, 9-13) , what is its reported fraction unbound?
Reply | 0.182

###

Each entry below carries its recorded CC50.
- method.summary: Cytotoxicity against human MT2 cells
- Assay type: toxicity, cell-based
Bridge positions count the residues as written; N and C are the ends. Square brackets hold non-standard residues; d marks the D form. Peptide text beside a SMILES is read from it. S5 = C=CCCC[C@](C)(N)C(=O)O
Just the number in µM, nothing appended.

Solved entries (count: 2):
[[record]]
compound = "CC(=O)NCC(=O)N[C@@]1(C)CCC/C=C\\CCC[C@@](C)(C(=O)N[C@@H](Cc2ccc(O)cc2)C(=O)N[C@@H](CC(C)C)C(=O)N[C@@H](Cc2c[nH]c3ccccc23)C(=O)N[C@@H](CC(N)=O)C(=O)N[C@@H](CC(C)C)C(=O)N[C@@H](CC(C)C)C(=O)N[C@@H](CCC(N)=O)C(=O)N[C@@H](Cc2ccc(O)cc2)C(=O)N[C@@H](Cc2c[nH]c3ccccc23)C(N)=O)NC(=O)[C@H](CC(C)C)NC(=O)[C@H](C)NC(=O)[C@H](CCC(=O)O)NC1=O (Ac-G[S5]EAL[S5]YLWNLLQYW-NH2; staple (Z) 2-6)"
units_text = "µM"
reported_result = 7.18

[[record]]
compound = "CC(=O)NCC(=O)N[C@@H](Cc1c[nH]c2ccccc12)C(=O)N[C@@H](CCC(=O)O)C(=O)N[C@@H](C)C(=O)N[C@@H](CC(C)C)C(=O)N[C@@H](CCCCN)C(=O)N[C@@H](Cc1ccc(O)cc1)C(=O)N[C@@H](CC(C)C)C(=O)N[C@@]1(C)CCC/C=C\\CCC[C@@](C)(C(=O)N[C@@H](Cc2ccc(O)cc2)C(=O)N[C@@H](Cc2c[nH]c3ccccc23)C(N)=O)NC(=O)[C@H](CC(C)C)NC(=O)[C@H](CC(C)C)NC(=O)[C@H](CC(N)=O)NC1=O (Ac-GWEALKYL[S5]NLL[S5]YW-NH2; staple (Z) 9-13)"
units_text = "µM"
reported_result = 5.87


Now take the following compound into account.
Ask | For CC(=O)NCC(=O)N[C@@H](Cc1c[nH]c2ccccc12)C(=O)N[C@@H](CCC(=O)O)C(=O)N[C@@H](C)C(=O)N[C@@H](CC(C)C)C(=O)N[C@@H](CCCCN)C(=O)N[C@@H](Cc1ccc(O)cc1)C(=O)N[C@@]1(C)CCC/C=C\CCC[C@@](C)(C(=O)N[C@@H](CCC(N)=O)C(=O)N[C@@H](Cc2ccc(O)cc2)C(=O)N[C@@H](Cc2c[nH]c3ccccc23)C(N)=O)NC(=O)[C@H](CC(C)C)NC(=O)[C@H](CC(N)=O)NC(=O)[C@H](Cc2c[nH]c3ccccc23)NC1=O (Ac-GWEALKY[S5]WNL[S5]QYW-NH2; staple (Z) 8-12) , what is its reported CC50?
Reply | 2.49

###

- method.summary: Volume of distribution at steady state in Sprague-Dawley rat at 1 mg/kg,iv administration measured upto 9 days by LC-MS/MS analysis
- Assay type: ADME, organism-based
- conditions.used: in vivo, time < 9 day, read-out: Vdss
Bridge positions count the residues as written; N and C are the ends. Square brackets hold non-standard residues; d marks the D form. Peptide text beside a SMILES is read from it. S5 = C=CCCC[C@](C)(N)C(=O)O
experimental.readout: Vd (L/kg)
Just the number in L/kg, nothing appended.

Ask | For CC(=O)NCC(=O)N[C@@]1(C)CCC/C=C\CCC[C@@](C)(C(=O)N[C@@H](Cc2ccc(O)cc2)C(=O)N[C@@H](CC(C)C)C(=O)N[C@@]2(C)CCC/C=C\CCC[C@@](C)(C(=O)N[C@@H](Cc3ccc(O)cc3)C(=O)N[C@@H](Cc3c[nH]c4ccccc34)C(N)=O)NC(=O)[C@H](CC(C)C)NC(=O)[C@H](CC(C)C)NC(=O)[C@H](CC(N)=O)NC2=O)NC(=O)[C@H](CC(C)C)NC(=O)[C@H](C)NC(=O)[C@H](CCC(=O)O)NC1=O (Ac-G[S5]EAL[S5]YL[S5]NLL[S5]YW-NH2; staple (Z) 2-6, 9-13) , what is its reported Vd?
Reply | 2.32

###

- Tested on: Human immunodeficiency virus 1
- method.summary: Antiviral activity against HIV-1 IIIB infected in human MT2 cells assessed as inhibition of viral growth pretreated with virus for 30 mins followed by infection with cells incubated for 72 hrs by ELISA
- Format: functional, organism-based
- conditions.used: Human immunodeficiency virus 1, IIIB
experimental.readout: pIC50
Here pIC50 is given on a logarithmic scale as minus log10 of the concentration in mol/L.

Ask | For H-GWEALKYLWNLLQYW-OH , what is its reported pIC50?
Reply | 6.89

###

- Test system: proteinase K
- method.summary: Proteolytic stability assessed as proteinase K (unknown origin) mediated compound degradation by measuring parent compound remaining incubated for 4 hrs by LC-MS/MS analysis
- Format: ADME
- conditions.used: human, read-out: Stability
Bridge positions count the residues as written; N and C are the ends. Square brackets hold non-standard residues; d marks the D form. Peptide text beside a SMILES is read from it. S5 = C=CCCC[C@](C)(N)C(=O)O
experimental.readout: remaining at 4 h
Kindly write the number and append the unit.

Ask | For CC(=O)NCC(=O)N[C@@]1(C)CCC/C=C\CCC[C@@](C)(C(=O)N[C@@H](Cc2ccc(O)cc2)C(=O)N[C@@H](CC(C)C)C(=O)N[C@@]2(C)CCC/C=C\CCC[C@@](C)(C(=O)N[C@@H](Cc3ccc(O)cc3)C(=O)N[C@@H](Cc3c[nH]c4ccccc34)C(N)=O)NC(=O)[C@H](CC(C)C)NC(=O)[C@H](CC(C)C)NC(=O)[C@H](CC(N)=O)NC2=O)NC(=O)[C@H](CC(C)C)NC(=O)[C@H](C)NC(=O)[C@H](CCC(=O)O)NC1=O (Ac-G[S5]EAL[S5]YL[S5]NLL[S5]YW-NH2; staple (Z) 2-6, 9-13) , what is its reported remaining at 4 h?
Reply | 89.6%
